The reported numbers originate from PubChem BioAssay AID651592.

Reported values of IC50 for individual entries
experiment_summary: inhibitors of NFkB activation in CF airway cells, SAR follow-up, KKLEB cells, panel, IL8 HTRF, NFkB-GFP (AID 651592);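 also: immortalized cystic fibrosis airway epithelial KKLEB cells with an NF-kB GFP reporter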
test_conditions: PAF/TNFa-induced NFkB-GFP / IL8 HTRF, CF-PAF assay, run 3
assay_endpoint: IC50 (µM)

input_smiles: O=C(Nc1ccc(N2CCN(C(=O)c3ccc(F)cc3)CC2)cc1)c1ccccn1
value_relation_sign: >
data_value: 66

input_smiles: O=C(Nc1ccc(N2CCN(C(=O)c3ccc(F)cc3)CC2)cc1)c1cc(Br)cc(Br)c1
value_relation_sign: >
data_value: 66

input_smiles: CCOc1ccc(NCc2cc3c(C(C)(C)C)nn(-c4ccc(Cl)cc4)c3[nH]c2=O)cc1
value_relation_sign: =
data_value: 10.2

input_smiles: O=C(Nc1ccc(N2CCN(C(=O)c3ccccc3)CC2)cc1)c1ccccn1
value_relation_sign: >
data_value: 66

input_smiles: O=C(Nc1ccc(N2CCN(C(=O)c3ccccc3F)CC2)cc1)c1ccccc1
value_relation_sign: =
data_value: 9.4

input_smiles: O=C(Nc1ccc(N2CCN(C(=O)c3ccccc3Cl)CC2)cc1)c1cccc(Br)c1
value_relation_sign: =
data_value: 24.3

input_smiles: O=C(Nc1ccc(N2CCN(C(=O)c3ccccc3Cl)CC2)cc1)c1cccnc1
value_relation_sign: =
data_value: 4.81

input_smiles: O=C(Nc1ccc(N2CCN(C(=O)c3ccc(F)cc3)CC2)cc1)c1cccnc1
value_relation_sign: =
data_value: 46.4

input_smiles: CCOc1ccc(NCc2cc3c(-c4ccc(OC)c(OC)c4)nn(-c4ccccc4)c3[nH]c2=O)cc1
value_relation_sign: =
data_value: 48

input_smiles: O=C(Nc1ccc(N2CCN(C(=O)c3ccccc3F)CC2)cc1)c1cc(Br)cc(Br)c1
value_relation_sign: >
data_value: 66

input_smiles: O=C(Nc1ccc(N2CCN(C(=O)c3ccccc3)CC2)cc1)c1cccnc1
value_relation_sign: =
data_value: 21.9

input_smiles: O=C(Nc1ccc(N2CCN(C(=O)c3ccccc3Cl)CC2)cc1)c1cc(Br)cc(Br)c1
value_relation_sign: >
data_value: 66

----------
test_target: Interleukin-8 (Homo sapiens) (UniProt P10145)
Sequence (P10145 whole entry, looked up): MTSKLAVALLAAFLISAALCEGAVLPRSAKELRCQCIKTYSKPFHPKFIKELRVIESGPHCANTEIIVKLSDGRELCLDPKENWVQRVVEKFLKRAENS
experiment_summary: inhibitors of NFkB activation in CF airway cells, SAR follow-up, KKLEB cells, panel, IL8 HTRF, NFkB-GFP (AID 651592);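 also: immortalized cystic fibrosis airway epithelial KKLEB cells with an NF-kB GFP reporter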
test_conditions: PAF/TNFa-induced NFkB-GFP / IL8 HTRF, IL8, PAF-induced, run 6

input_smiles: O=C(Nc1ccc(N2CCN(C(=O)c3ccccc3)CC2)cc1)c1ccncc1
IC50: > 66 µM
--
input_smiles: CCOc1ccc(NCc2cc3c(-c4ccc(F)cc4)nn(-c4ccccc4)c3[nH]c2=O)cc1
IC50: 0.248 µM
--
input_smiles: O=C(Nc1ccc(N2CCN(C(=O)c3ccccc3F)CC2)cc1)c1ccccc1
IC50: > 66 µM
--
input_smiles: O=C(Nc1ccc(N2CCN(C(=O)c3ccccc3Cl)CC2)cc1)c1ccncc1
IC50: 10 µM
--
input_smiles: O=C(Nc1ccc(N2CCN(C(=O)c3ccc(F)cc3)CC2)cc1)c1ccccc1
IC50: > 66 µM
--
input_smiles: O=C(Nc1ccc(N2CCN(C(=O)c3ccccc3)CC2)cc1)c1ccccc1
IC50: > 66 µM
--
input_smiles: O=C(Nc1ccc(N2CCN(C(=O)c3ccc(F)cc3)CC2)cc1)c1cc(Br)cc(Br)c1
IC50: > 66 µM
--
input_smiles: O=C(Nc1ccc(N2CCN(C(=O)c3ccccc3)CC2)cc1)c1cccc(Br)c1
IC50: > 66 µM
--
input_smiles: O=C(Nc1ccc(N2CCN(C(=O)c3ccc(F)cc3)CC2)cc1)c1cccc(Br)c1
IC50: > 66 µM
--
input_smiles: O=C(Nc1ccc(N2CCN(C(=O)c3ccc(F)cc3)CC2)cc1)c1ccncc1
IC50: > 66 µM
